- System: CP194
- METHOD SUMMARY: qHTS profiling for inhibitors of Plasmodium falciparum proliferation (AID 504749); further: nearly all actives have a fitted effect of over 60% in size
- STUDY CONDITIONS: P. falciparum in erythrocytes, SYBR Green DNA, 72 h; series mostly up to 28.7 µM
Results filed as inconclusive are left out. The source made the active and inactive calls. The call rests on the fitted dose curve; in most records, active means well fitted inhibition curve with a large enough effect; inconclusive means small, poorly fitted or top-dose-only effect; inactive means flat fitted curve, though single readings scatter.
Classes used: yes = active, no = inactive

COMPOUND | GROUP LABEL
C[N+](C)(C)CCCCCCCCCC[N+](C)(C)C | yes
NC(Cc1ccc(Cl)cc1)C(=O)O (stereo not given) | no
NCCCNCCSP(=O)(O)O | no
CN1CCN(CC(=O)N2c3ccccc3C(=O)Nc3cccnc32)CC1 | no
CN(C)C(=O)Oc1ccc[n+](C)c1 | no
